Hey, just so you know, these numbers are from ChEMBL document CHEMBL1127910.

assay.system: Retinoic acid receptor alpha (Homo sapiens)
Sequence (P10276 whole entry): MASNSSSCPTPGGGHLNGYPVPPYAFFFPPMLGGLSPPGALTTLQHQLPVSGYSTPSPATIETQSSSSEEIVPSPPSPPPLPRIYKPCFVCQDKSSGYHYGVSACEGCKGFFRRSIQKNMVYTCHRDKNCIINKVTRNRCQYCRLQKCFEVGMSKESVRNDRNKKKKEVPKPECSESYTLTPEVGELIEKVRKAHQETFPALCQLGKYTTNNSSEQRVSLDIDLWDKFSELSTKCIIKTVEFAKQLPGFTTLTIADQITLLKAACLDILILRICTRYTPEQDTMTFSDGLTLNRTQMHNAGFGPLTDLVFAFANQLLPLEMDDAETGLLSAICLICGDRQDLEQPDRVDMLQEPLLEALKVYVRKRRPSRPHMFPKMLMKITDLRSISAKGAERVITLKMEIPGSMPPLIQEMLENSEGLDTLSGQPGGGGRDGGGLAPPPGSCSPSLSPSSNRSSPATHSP
assay.name: Transcriptional activation for RAR alpha receptor
reported.metric: pEC50
When answering, recall that pEC50 equals minus log10 of the concentration in mol/L, and write that number alone.

C/C(=C\c1ccc(C(=O)O)cc1)c1cc2c(cc1C)C(C)(C)CCC2(C)C = 5.34
CC1(C)CCC(C)(C)c2cc(/C=C/c3ccc(C(=O)O)cc3)ccc21 = 7.96
C/C(=C\c1ccc2c(c1)C(C)(C)CCC2(C)C)c1ccc(C(=O)O)cc1 = 7.62
C/C(=C\c1ccc(C(=O)O)cc1)c1cc2c(cc1Br)C(C)(C)CCC2(C)C = 6.00

The recorded pEC50 for Cc1cc2c(cc1/C=C/c1ccc(C(=O)O)cc1)C(C)(C)CCC2(C)C is 7.82

* * *

assay.system: Retinoic acid receptor gamma (Homo sapiens, UniProt P13631)
Sequence (P13631 whole entry): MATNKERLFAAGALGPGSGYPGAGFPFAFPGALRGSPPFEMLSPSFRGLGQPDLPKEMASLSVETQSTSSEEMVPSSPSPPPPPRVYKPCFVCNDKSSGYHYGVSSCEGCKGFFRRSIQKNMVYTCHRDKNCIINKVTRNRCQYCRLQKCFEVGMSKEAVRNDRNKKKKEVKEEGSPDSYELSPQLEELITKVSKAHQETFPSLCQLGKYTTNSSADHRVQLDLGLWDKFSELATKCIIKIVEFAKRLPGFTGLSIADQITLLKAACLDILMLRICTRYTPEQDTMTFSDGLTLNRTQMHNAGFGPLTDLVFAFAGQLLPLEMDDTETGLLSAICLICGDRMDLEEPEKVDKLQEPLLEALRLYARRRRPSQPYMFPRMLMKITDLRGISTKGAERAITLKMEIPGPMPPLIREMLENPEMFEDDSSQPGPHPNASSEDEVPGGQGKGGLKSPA
assay.name: Transcriptional activation for RAR gamma receptor
reported.metric: EC50 (nM)
Just the number please, in nM, no unit attached.

Look over these answered cases.
C/C(=C\c1ccc(C(=O)O)cc1)c1cc2c(cc1Br)C(C)(C)CCC2(C)C = 91
C/C(=C\c1ccc(C(=O)O)cc1)c1cc2c(cc1C)C(C)(C)CCC2(C)C = 152

The recorded EC50 for C/C(=C\c1ccc(C(=O)O)cc1)c1cc2c(cc1Cl)C(C)(C)CCC2(C)C is 77

* * *

assay.system: Retinoic acid receptor beta (Homo sapiens, UniProt P10826)
Sequence (P10826 whole entry): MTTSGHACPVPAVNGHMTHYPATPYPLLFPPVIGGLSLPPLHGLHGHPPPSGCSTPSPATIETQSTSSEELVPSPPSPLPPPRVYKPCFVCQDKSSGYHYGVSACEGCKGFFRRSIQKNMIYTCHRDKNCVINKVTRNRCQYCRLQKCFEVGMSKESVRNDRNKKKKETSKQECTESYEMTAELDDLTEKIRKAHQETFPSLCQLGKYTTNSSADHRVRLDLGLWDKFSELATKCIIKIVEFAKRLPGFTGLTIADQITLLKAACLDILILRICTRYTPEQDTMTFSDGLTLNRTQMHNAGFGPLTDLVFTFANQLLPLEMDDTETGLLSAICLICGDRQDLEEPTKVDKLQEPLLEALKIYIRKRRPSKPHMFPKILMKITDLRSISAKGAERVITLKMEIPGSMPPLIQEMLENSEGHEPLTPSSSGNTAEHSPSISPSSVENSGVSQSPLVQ
assay.name: Transcriptional activation for RAR beta receptor
reported.metric: pEC50
When answering, recall that pEC50 equals minus log10 of the concentration in mol/L, and write that number alone.

Look over these answered cases.
CC1(C)CCC(C)(C)c2cc(/C=C/c3ccc(C(=O)O)cc3)ccc21 = 9.40
C/C(=C\c1ccc(C(=O)O)cc1)c1cc2c(cc1Br)C(C)(C)CCC2(C)C = 7.68
C/C(=C\c1ccc(C(=O)O)cc1)c1cc2c(cc1Cl)C(C)(C)CCC2(C)C = 7.68

Query molecule follows.
The recorded pEC50 for CCc1cc2c(cc1/C(C)=C/c1ccc(C(=O)O)cc1)C(C)(C)CCC2(C)C is 6.02
